System: DENV-4
Experiment: microbe, parasite or virus in culture
Details: Dengue virus, DENV4, Huh-7
observable: EC50

> print(dat)
                                  smilesstr  result
1  CNc1nc(N)nc2c1ncn2[C@@H]1O[C@H](CO[P@](=O)(N[C@@H](C)C(=O)OC(C)C)Oc2ccccc2)[C@@H](O)[C@@]1(C)F  570 nM

----------
Assay: Cytotoxicity in CEM-SS cells
Assay type: cell-based
Settings: human, Table 2, CEM-SS
observable: CC50

> print(dat)
                                  smilesstr    result
1  CNc1nc(N)nc2c1ncn2[C@@H]1O[C@H](CO[P@](=O)(N[C@@H](C)C(=O)OC(C)C)Oc2ccccc2)[C@@H](O)[C@@]1(C)F  > 100 µM

----------
Assay: clinical
Details: both, human, in vivo, 1000 mg, AUCtau, steady-state, human plasma, Compound 2 1000 mg QD; mean±SD
observable: AUC

> print(dat)
                                  smilesstr        result
1  CNc1nc(N)nc2c1ncn2[C@@H]1O[C@H](CO[P@](=O)(N[C@@H](C)C(=O)OC(C)C)Oc2ccccc2)[C@@H](O)[C@@]1(C)F  3090 ng·h/mL

----------
Experiment: Pharmacokinetic study in SAD cohorts
Format: in vivo, human
Conditions: both sexes, human, plasma, po, 500 mg, human plasma, single oral Compound 2 500 mg, fed; read-out: Tmax
observable: Tmax

> print(dat)
                                  smilesstr  result
1  CNc1nc(N)nc2c1ncn2[C@@H]1O[C@H](CO[P@](=O)(N[C@@H](C)C(=O)OC(C)C)Oc2ccccc2)[C@@H](O)[C@@]1(C)F     2 h

----------
Tested on: Rhinovirus
Experiment: Antiviral specificity panel, Rhinovirus
Type: cell-based
Conditions: Enterovirus; RNA virus, H1-HeLa
observable: EC50

> print(dat)
                                   compound    result
1  CNc1nc(N)nc2c1ncn2[C@@H]1O[C@H](CO[P@](=O)(N[C@@H](C)C(=O)OC(C)C)Oc2ccccc2)[C@@H](O)[C@@]1(C)F [Compound 1]  > 100 µM

----------
Assay: clinical
Conditions: both, human, in vivo, 750 mg, AUCtau, steady-state, human plasma, Compound 2 750 mg TID; mean±SD
observable: AUC (ng·h/mL)

> print(dat)
                                   compound  unitofmeasurement  number
1  CNc1nc(N)nc2c1ncn2[C@@H]1O[C@H](CO[P@](=O)(N[C@@H](C)C(=O)OC(C)C)Oc2ccccc2)[C@@H](O)[C@@]1(C)F [Compound 1]            ng·h/mL    2540

----------
Assay: Pharmacokinetic study in SAD cohorts
Format: in vivo, human
Conditions: both sexes, human, plasma, po, 1500 mg, human plasma, single oral Compound 2 1500 mg, fasting; read-out: Cmax
observable: Cmax (ng/mL)

> print(dat)
                                  smilesstr  number
1  CNc1nc(N)nc2c1ncn2[C@@H]1O[C@H](CO[P@](=O)(N[C@@H](C)C(=O)OC(C)C)Oc2ccccc2)[C@@H](O)[C@@]1(C)F    5050

----------
Assay: Pharmacokinetic study in SAD cohorts
Format: in vivo, human
Settings: both sexes, human, plasma, po, 500 mg, human plasma, single oral Compound 2 500 mg, fed
observable: half-life

> print(dat)
                                  smilesstr  observable  result
1  CNc1nc(N)nc2c1ncn2[C@@H]1O[C@H](CO[P@](=O)(N[C@@H](C)C(=O)OC(C)C)Oc2ccccc2)[C@@H](O)[C@@]1(C)F   half-life  42 min

----------
Test: Pharmacokinetic study in SAD cohorts
Format: in vivo, human
Conditions: both sexes, human, plasma, po, 1000 mg, human plasma, single oral Compound 2 1000 mg, patients of South/Southeast/East Asian origin; read-out: Cmax
observable: Cmax (ng/mL)

> print(dat)
                                  smilesstr  number
1  CNc1nc(N)nc2c1ncn2[C@@H]1O[C@H](CO[P@](=O)(N[C@@H](C)C(=O)OC(C)C)Oc2ccccc2)[C@@H](O)[C@@]1(C)F    3670

----------
Assay: Pharmacokinetic study in SAD cohorts
Assay type: in vivo, human
Conditions: both sexes, human, plasma, po, 1500 mg, human plasma, single oral Compound 2 1500 mg, fasting
observable: half-life (min)

> print(dat)
                                  smilesstr  number
1  CNc1nc(N)nc2c1ncn2[C@@H]1O[C@H](CO[P@](=O)(N[C@@H](C)C(=O)OC(C)C)Oc2ccccc2)[C@@H](O)[C@@]1(C)F      36

----------
Assay: Pharmacokinetic study in SAD cohorts
Assay type: in vivo, human
Conditions: both sexes, human, plasma, po, 1000 mg, human plasma, single oral Compound 2 1000 mg, fasting; read-out: Cmax
observable: Cmax

> print(dat)
                                   compound      result
1  CNc1nc(N)nc2c1ncn2[C@@H]1O[C@H](CO[P@](=O)(N[C@@H](C)C(=O)OC(C)C)Oc2ccccc2)[C@@H](O)[C@@]1(C)F [Compound 1]  3040 ng/mL

----------
Test: Pharmacokinetic study in SAD cohorts
Type: in vivo, human
Conditions: both sexes, human, plasma, po, 500 mg, human plasma, single oral Compound 2 500 mg, fasting
observable: half-life (min)

> print(dat)
                                   compound  number
1  CNc1nc(N)nc2c1ncn2[C@@H]1O[C@H](CO[P@](=O)(N[C@@H](C)C(=O)OC(C)C)Oc2ccccc2)[C@@H](O)[C@@]1(C)F [Compound 1]      30

----------
Experiment: in vitro
Details: hamster
observable: CC50

> print(dat)
                                  smilesstr    result
1  CNc1nc(N)nc2c1ncn2[C@@H]1O[C@H](CO[P@](=O)(N[C@@H](C)C(=O)OC(C)C)Oc2ccccc2)[C@@H](O)[C@@]1(C)F  > 170 µM

----------
Experiment: Pharmacokinetic study in SAD cohorts
Assay type: in vivo, human
Conditions: both sexes, human, plasma and urine, po, 1000 mg, single oral Compound 2 1000 mg, fasting
observable: CL renal (mL/min)

> print(dat)
                                  smilesstr  observable  number
1  CNc1nc(N)nc2c1ncn2[C@@H]1O[C@H](CO[P@](=O)(N[C@@H](C)C(=O)OC(C)C)Oc2ccccc2)[C@@H](O)[C@@]1(C)F    CL renal     190

----------
Test: Cardiomyocyte cytotoxicity assay (CellTiter Glo)
Details: human, human iPS cardiomyocytes
observable: CC50 at 3 days

> print(dat)
                                   compound    result
1  CNc1nc(N)nc2c1ncn2[C@@H]1O[C@H](CO[P@](=O)(N[C@@H](C)C(=O)OC(C)C)Oc2ccccc2)[C@@H](O)[C@@]1(C)F [Compound 1]  > 100 µM

----------
Assay: Pharmacokinetic study in SAD cohorts
Assay type: in vivo, human
Conditions: both sexes, human, plasma, po, 500 mg, human plasma, single oral Compound 2 500 mg, fed
observable: AUC(0-inf) (ng·h/mL)

> print(dat)
                                   compound  number
1  CNc1nc(N)nc2c1ncn2[C@@H]1O[C@H](CO[P@](=O)(N[C@@H](C)C(=O)OC(C)C)Oc2ccccc2)[C@@H](O)[C@@]1(C)F [Compound 1]     980

----------
Test: Cytotoxicity in HEp2 cells
Assay type: cell-based
Conditions: human, Table 2, HEp2
observable: CC50

> print(dat)
                                  smilesstr    result
1  CNc1nc(N)nc2c1ncn2[C@@H]1O[C@H](CO[P@](=O)(N[C@@H](C)C(=O)OC(C)C)Oc2ccccc2)[C@@H](O)[C@@]1(C)F  > 100 µM

----------
Test system: Dengue serotype 2
Test: In vitro antiviral potency, summary over strains, Dengue serotype 2
Assay type: cell-based
Conditions: Dengue virus
pEC50: −log10 of the molar value.
observable: pEC50

> print(dat)
                                   molecule  observable  result
1  CNc1nc(N)nc2c1ncn2[C@@H]1O[C@H](CO[P@](=O)(N[C@@H](C)C(=O)OC(C)C)Oc2ccccc2)[C@@H](O)[C@@]1(C)F [Compound 1]       pEC50  > 5.15

----------
Assay: Bone marrow progenitor cell assay, erythroid (E)
Conditions: human, erythroid (E) human bone marrow progenitor cells
observable: CC50 at 14 days

> print(dat)
                                   molecule    result
1  CNc1nc(N)nc2c1ncn2[C@@H]1O[C@H](CO[P@](=O)(N[C@@H](C)C(=O)OC(C)C)Oc2ccccc2)[C@@H](O)[C@@]1(C)F [Compound 1]  > 100 µM

Cited source: patent US20250082656A1
